Tested on: Wolbachia pipientis
Experiment: Anti-Wolbachia Cell-Based Screen
Type: functional
Design: scale not given: in the data most compounds retested in dose-response had high values
Details: 5 µM
The campaign covered roughly 48,000 compounds. About 13,000 (27%) showed an effect of 50% or more. This is one part of the list.
value-type: Percent Effect (%)
Just the number in %, nothing appended.

Query string: State its Percent Effect for this molecule: CC(C)NC(=O)CC(C)NC(=O)N(C)Cc1cc(Cl)cn1C (stereo unspecified)
Result string: -3.888

Query string: // fetch Percent Effect given entry CN1CC(c2n[nH]c(=O)n2-c2cccc(Cl)c2)CC1=O (stereo unspecified)
Result string: -17.26

Query string: Answer with reported Percent Effect of "CCOc1ccccc1-n1c(C2CC2)n[nH]c1=O"
Result string: 101.4

Query string: Please indicate Percent Effect recorded for "CCSc1ccc(C(=O)N2CCC3(CC2)[C@H](O)C[C@@H]3O)s1"
Result string: 100.2

Query string: Output measured Percent Effect for this item: "C[C@H](c1ccc(F)cc1)n1c(C2CCC2)n[nH]c1=O"
Result string: 13.77

Query string: Quote Percent Effect reported for "CCSc1ccc(C(=O)N2CC[C@](O)(CC)[C@H](O)C2)s1" please.
Result string: 107.9

###

Test system: Wolbachia pipientis
Assay: Anti-Wolbachia Cell-Based Screen
Format: functional
Design: scale not given: in the data most compounds retested in dose-response had high values
Details: 5 µM
In all, about 48,000 compounds went through this assay and about 13,000 (27%) showed an effect of 50% or more. The list shows a part of the results.
value-type: Percent Effect (%)
Note: unit % is implicit; provide only the numeric part.

Query string: Determine from records and report Percent Effect for "O=S(=O)(Nc1ccc(N2CCOCC2)cc1)c1cccc(F)c1"
Result string: 2.423

Query string: Please give the documented Percent Effect of CN(C)C1CC2(CCN(C(=O)C3(C#N)CC3)CC2)c2ccccc21.O=C(O)C(F)(F)F (stereo unspecified)
Result string: 5.959

Query string: Identify measured Percent Effect corresponding to Cc1ncc(C(=O)N2CCCC(n3cccn3)C2)s1 (stereo unspecified)
Result string: 111.9

Query string: Please supply the value of reported Percent Effect for the item Cc1csc(CNC(=O)N2CCCC(c3nncn3C)C2)n1 (stereo unspecified)
Result string: 102.5

Query string: Please report Percent Effect for the following compound: CCc1[nH]ncc1C(=O)N1CCCC(n2cccn2)C1 (stereo unspecified)
Result string: -0.4405

Query string: Indicate the recorded Percent Effect value for this compound: "CCOC1CCN(C(=O)c2cc(-c3ccc(Cl)cc3)on2)CC1"
Result string: -1.009

Query string: Respond only with Percent Effect recorded for O=C(c1cnc(-c2cccs2)s1)N1CCCC(n2cccn2)C1 (stereo unspecified)
Result string: 0.5894

Query string: Supply recorded Percent Effect for O=C(c1cnc(-c2ccccn2)s1)N1CCCC(n2cccn2)C1 (stereo unspecified) here.
Result string: 116.5

Query string: State, in one line, measured Percent Effect of Cn1cnnc1C1CCCN(C(=O)NCc2cc[nH]n2)C1 (stereo unspecified)
Result string: -3.292

Query string: Give recorded Percent Effect. CN(C)Cc1nc(C(C)(C)NC(=O)C2CC(=O)N(CC3CC3)C2)no1 (stereo unspecified)
Result string: -8.829

Query string: Please indicate Percent Effect recorded for "Cn1cnnc1C1CCN(C(=O)c2cc(-c3ccccc3)on2)CC1"
Result string: 84.11

###

Tested on: Wolbachia pipientis
Test: Anti-Wolbachia Cell-Based Screen
Assay type: functional
Set-up: scale not given: in the data most compounds retested in dose-response had high values
Conditions: 5 µM
The campaign covered roughly 48,000 compounds. About 13,000 (27%) showed an effect of 50% or more. Some of the results follow.
value-type: Percent Effect (%)
# number only, unit % dropped from output

Query string: Give me measured Percent Effect, please, for this molecule: COCCn1cc2c(n1)C(CNCc1ccc(F)cc1)OCC2.O=C(O)C(F)(F)F.O=C(O)C(F)(F)F (stereo unspecified)
Result string: 10.33

Query string: State its Percent Effect: "O=C(NCC1(CO)CC1)c1ccccc1Cl"
Result string: 3.943

Query string: Please list Percent Effect recorded for the molecule O=C(O)C(F)(F)F.c1c2c(nn1CC1CCOCC1)C(CNC1CCOCC1)OCC2 (stereo unspecified)
Result string: -44.92

Query string: Look up and report measured Percent Effect for this entry: "O=C(NCC1(Sc2ccccc2)CC1)c1ccc(=O)[nH]n1"
Result string: 98.28

Query string: Give the reported Percent Effect for this molecule. "CCc1ccc(-c2cn(CCSc3ncn[nH]3)nn2)nc1"
Result string: 2.471

Query string: Consider the molecule "O=C(NC1(c2cccc(F)c2)CCOCC1)c1cc[nH]n1" and give its recorded Percent Effect.
Result string: -5.45

Query string: Fill in reported Percent Effect for this entry: "Cc1noc(C)c1CNc1c(N2CCCC2)cccc1N1CCCC1"
Result string: 3.451

Query string: Determine its reported Percent Effect: COCCn1cc2c(n1)C(CNCc1nccs1)OCC2.O=C(O)C(F)(F)F.O=C(O)C(F)(F)F (stereo unspecified)
Result string: 108.5

Query string: # return recorded Percent Effect for input "CCN(CC)c1ccc(CNC(=O)c2ccc(=O)[nH]n2)cn1"
Result string: -14.62

Query string: Specify measured Percent Effect for "CNC(=O)[C@H]1C[C@@H]2CCN(Cc3nccs3)C[C@H]2O1.O=C(O)C(F)(F)F" .
Result string: -7.914

Query string: Return the recorded Percent Effect value; entry: "O=C(NCC1(Sc2ccccc2)CC1)c1cc[nH]n1"
Result string: 109.2

###

Tested on: Wolbachia pipientis
Assay: Anti-Wolbachia Cell-Based Screen
Assay type: functional
Parameters: scale not given: in the data most compounds retested in dose-response had high values
Details: 5 µM
Among all 48,000 compounds or so, about 13,000 (27%) showed an effect of 50% or more. Some of the results follow.
value-type: Percent Effect

Query string: Identify the reported Percent Effect for the following entry. O=C(CN1CCS(=O)(=O)CC1)NC1CCCc2ccccc21 (stereo not drawn)
Result string: 8.057%

Query string: Entry "NC(=O)NC(=O)CCN(Cc1ccccc1)CC1CCOCC1" needs its Percent Effect filled in; supply it.
Result string: -17.87%

Query string: Return value of Percent Effect for input "Cc1ncc(-c2ccnc(SCCN(C)C)n2)c(-c2ccco2)n1" , no commentary.
Result string: 91.76%

Query string: For the molecule c1ccc(C2CCCN(c3cncc(-n4cccn4)n3)CC2)cc1 (stereo not drawn) , give its reported Percent Effect.
Result string: 13.07%

Query string: Note Percent Effect for the molecule shown: CCC(C(=O)NC1CCN(S(C)(=O)=O)CC1)n1cccn1 (stereo not drawn)
Result string: -1.013%

Query string: Output Percent Effect of "CC(C)Nc1ncnc2c1CCN(c1cc(C(F)(F)F)ncn1)CC2"
Result string: -0.2205%

Query string: Fill in reported Percent Effect for this entry: "Cc1cnc(N2CCC(c3ccncc3)CC2)nc1-c1ccnn1C"
Result string: -32.29%

Query string: For the molecule "COCCN1CCc2ncnc(NC(C)C)c2CC1.O=C(O)C(F)(F)F" , report Percent Effect.
Result string: 87.2%

Query string: Report Percent Effect, nothing else, for this molecule: "COCc1nc(CNC2CCSCC2)no1"
Result string: -3.755%

Query string: State its Percent Effect: CN(C)CCOCC1CN(C(=O)N2CCCC2)Cc2ccnn2C1.O=C(O)C(F)(F)F.O=C(O)C(F)(F)F (stereo not drawn)
Result string: -8.834%

Query string: Specify measured Percent Effect for "CCOCc1nc2c(c(N3CC=CC3)n1)CCN(C1CCOCC1)CC2" .
Result string: -25.57%

Query string: Please give the documented Percent Effect of "COCCN(Cc1cccnc1)c1nc(C)nc2oc(C)nc12"
Result string: 1.02%

Query string: Give the reported Percent Effect for this molecule. "CC(C)c1cc(C(=O)N2C[C@H]3CC[C@@H]2CN(Cc2cscn2)C3)no1"
Result string: -2.131%

Query string: Could you please provide reported Percent Effect for Cn1cc(CN2CCC(F)(F)C3(CCN(c4cccnc4)C3)C2)cn1.O=C(O)C(F)(F)F.O=C(O)C(F)(F)F (stereo not drawn) ? Thanks!
Result string: 116.7%

Query string: Give Percent Effect for CCc1cc(CNC(=O)N2Cc3ccccc3N(C)CC2C)[nH]n1 (stereo not drawn)
Result string: 5.505%

Query string: State, in one line, measured Percent Effect of "c1ccc(N2CCC(c3ccncc3)CC2)cc1"
Result string: 167%

Query string: In one line, give reported Percent Effect of the entry "O=C(O)C(F)(F)F.O=C(O)C(F)(F)F.c1cncc(-c2ncnc3c2CCN(Cc2cccs2)CC3)c1" .
Result string: 89.28%

Query string: Return the recorded Percent Effect value; entry: CCC1CN(C)c2ccccc2CN1C(=O)c1c[nH]c(=O)cc1C (stereo not drawn)
Result string: 123.4%

Query string: // Input: COCCN1CC(C(=O)N(C)Cc2cc(-c3cccnc3)no2)CC1=O (stereo not drawn) . Output its Percent Effect only.
Result string: -16.5%

Query string: Note down Percent Effect recorded for "CCOC(=O)C1CCN(Cc2csc(C(C)(C)C)n2)CC1"
Result string: -1.919%

Query string: Supply reported Percent Effect belonging to this molecule: "CCn1c(Nc2ccccc2OC)nc2c(C)nn(C)c2c1=O"
Result string: 5.481%

Query string: Output measured Percent Effect for this item: COCCN1CC(C(=O)N(C)Cc2ccc(Cl)s2)CC1=O (stereo not drawn)
Result string: 25.53%

Query string: Please supply the value of reported Percent Effect for the item "O=C(Nc1cc(-c2ccncc2)no1)C1CCC1"
Result string: -23.1%

Query string: Dear colleague, please send me the reported Percent Effect for "CC(C)Oc1ncnc2c1CCN(Cc1ccc(F)cc1)CC2.O=C(O)C(F)(F)F" when you can.
Result string: 2.897%

Query string: Note Percent Effect for the molecule shown: "CC(C)OC(=O)CN1N=C(C(=O)N2CCCC2)S(=O)(=O)c2ccccc21"
Result string: 15.65%

Query string: Please report Percent Effect for the following molecule: FC1(F)CCN(Cc2cccnc2)CC12CCN(c1ccccc1)C2.O=C(O)C(F)(F)F.O=C(O)C(F)(F)F.O=C(O)C(F)(F)F (stereo not drawn)
Result string: 93.27%

Query string: Note Percent Effect for the molecule shown: CC(C)CC(NC(=O)c1cc(-c2cccn2C)n[nH]1)c1ncnn1C (stereo not drawn)
Result string: 13.42%

Query string: State, in one line, measured Percent Effect of "O=C(NCC1CC1)Nc1cccc(N2CCN(CC3CC3)CC2)c1"
Result string: 0.3476%

Query string: Identify Percent Effect associated with the molecule "c1cc(CCNc2ncnc3c2CCN(Cc2ccoc2)CC3)ccn1"
Result string: -12.64%

Query string: Look up and state reported Percent Effect for "O=C(CN1CCc2cncnc2C1)NC(C1CC1)C1CC1"
Result string: 0.03163%

Query string: Write down Percent Effect measured for item "FC(F)(F)c1cccc(N2CCC(NCc3cccnc3)CC2)c1"
Result string: 10.28%

Query string: Please give the documented Percent Effect of "CC1(C)CC(CC(=O)N2CC(C)(C)[C@@](C)(O)C2)CC(C)(C)N1"
Result string: -10.88%

Query string: Supply measured Percent Effect of Cc1cnn(CCNCC(O)COc2ccc(C#N)cc2)c1 (stereo not drawn) in your reply.
Result string: -2.958%

Query string: Let me know recorded Percent Effect for "CCc1cnc2c(c1NCc1cccc(OC)c1)c(=O)n(C)c(=O)n2C" , thanks.
Result string: -3.77%

Query string: Provide only the value of recorded Percent Effect for "c1cc(N2CCC(c3nnc(Cn4ccnc4)n3C3CC3)CC2)ccn1"
Result string: -8.252%

Query string: Tell us which Percent Effect value is on record for "CCCn1ncc(-c2nc3c(cnn3CC)[nH]2)c1C"
Result string: -25.23%

Query string: Tell me its Percent Effect given "c1cc(-c2noc(-c3cc(C4CC4)[nH]n3)n2)cc(N2CCCCC2)n1" as the entry.
Result string: -19.77%

Query string: Respond only with Percent Effect recorded for Cc1ccc(CN2CCN(c3ncnc4[nH]cnc34)CC2CCO)cc1 (stereo not drawn)
Result string: -6.275%

Query string: State its Percent Effect: "CC(C)Nc1ncnc2c1CCN(Cc1nccn1C)CC2.O=C(O)C(F)(F)F.O=C(O)C(F)(F)F"
Result string: -25.56%

Query string: Please give the documented Percent Effect of "Cc1cc(CN2CC[C@H]3C[C@H](C(=O)Nc4cccnc4C)O[C@@H]3C2)no1.O=C(O)C(F)(F)F.O=C(O)C(F)(F)F"
Result string: 0%

Query string: Identify measured Percent Effect corresponding to FC1(F)CCN(Cc2ccncc2)CC12CCN(c1cccnc1)C2.O=C(O)C(F)(F)F.O=C(O)C(F)(F)F.O=C(O)C(F)(F)F (stereo not drawn)
Result string: 90.74%

Query string: Please indicate Percent Effect recorded for "CNC(=O)Cc1ccc(NC(=O)NCc2nc(C)sc2C)cc1"
Result string: 5.733%

Query string: Look up Percent Effect of "Cc1ncc(-c2ccnc(N3CCN(C)CC3)n2)c(-c2cccnc2)n1" and report it.
Result string: -5.726%
